Counter-ions that a name gives are not always drawn.
# melting point values compiled below

Here's what some known entries look like.
Compound	melting point
Clc1cccc(-n2cnc(-c3ccccn3)n2)c1 (as salt: hydrochloride)	221 to 223 °C
Clc1cccc(-c2ncn(-c3ccccn3)n2)c1 (as salt: hydrochloride)	125 to 128 °C

Return reported melting point; argument: N#Cc1cccc(-n2cnc(-c3ccccn3)n2)c1
194 to 195 °C

Field request: melting point | item: N#Cc1cccc(-c2ncn(-c3ccccn3)n2)c1 (as salt: hydrochloride)
185 to 188 °C

Source of measurements: patent US7105548B2
